tested on: IGROV-1; assay: Cytotoxicity against human IGROV1 cells assessed as effect on cell growth at 10 uM incubated for 48 hrs by sulforhodamine B assay; format: cell-based; settings: igrov-1, 48 h
measured parameter: Activity

Reference set, count: 5
compound	target entity	Activity
COc1ccccc1CN1C(=O)[C@@H]2C/C(=C\N(C)C)C(=O)N2C1N(C)C (stereo partly drawn)	IGROV-1	Non-Toxic
O=C(NCc1ccc(Cl)cc1Cl)[C@@H]1CCC(=O)N1c1cncs1	IGROV-1	Non-Toxic
O=C(NCc1ccc(Cl)cc1Cl)[C@@H]1CCC(=O)N1C(c1ccc(Cl)cc1)c1ccc(Cl)cc1	IGROV-1	Non-Toxic
CCCCCCN1C(=O)[C@@H]2C/C(=C\N(C)C)C(=O)N2C1N(C)C (stereo partly drawn)	IGROV-1	Non-Toxic
O=C1N[C@H](C(=O)NCc2ccc(Cl)cc2Cl)CO1	IGROV-1	Non-Toxic

**Query** Any idea what its Activity is? The compound is O=C(NCCc1ccc(Cl)cc1Cl)[C@@H]1CCC(=O)N1c1ccccc1
**Result** Non-Toxic

**Query** Name the recorded Activity for O=C(NCc1ccc(Cl)cc1Cl)[C@@H]1CCC(=O)N1c1nccs1 .
**Result** Non-Toxic

**Query** Look up Activity: CCCCCCN1C(=O)[C@@H]2CCC(=O)N2C1N(C)C (stereo partly drawn)
**Result** Non-Toxic

---

biological target: P2X purinoceptor 7 (Homo sapiens) (UniProt Q99572); assay: Inhibition of human P2X7 expressed in human HEK293 cells assessed as reduction in BzATP-stimulated TO-PRO-3 incorporation at 10 uM preincubated with compound and TO-PRO-3 for 15 mins prior to BzATP addition and measured after 1 hr by Fluo-3AM dye based flow cytometry relative to control; assay type: cell-based
Sequence (Q99572 whole entry): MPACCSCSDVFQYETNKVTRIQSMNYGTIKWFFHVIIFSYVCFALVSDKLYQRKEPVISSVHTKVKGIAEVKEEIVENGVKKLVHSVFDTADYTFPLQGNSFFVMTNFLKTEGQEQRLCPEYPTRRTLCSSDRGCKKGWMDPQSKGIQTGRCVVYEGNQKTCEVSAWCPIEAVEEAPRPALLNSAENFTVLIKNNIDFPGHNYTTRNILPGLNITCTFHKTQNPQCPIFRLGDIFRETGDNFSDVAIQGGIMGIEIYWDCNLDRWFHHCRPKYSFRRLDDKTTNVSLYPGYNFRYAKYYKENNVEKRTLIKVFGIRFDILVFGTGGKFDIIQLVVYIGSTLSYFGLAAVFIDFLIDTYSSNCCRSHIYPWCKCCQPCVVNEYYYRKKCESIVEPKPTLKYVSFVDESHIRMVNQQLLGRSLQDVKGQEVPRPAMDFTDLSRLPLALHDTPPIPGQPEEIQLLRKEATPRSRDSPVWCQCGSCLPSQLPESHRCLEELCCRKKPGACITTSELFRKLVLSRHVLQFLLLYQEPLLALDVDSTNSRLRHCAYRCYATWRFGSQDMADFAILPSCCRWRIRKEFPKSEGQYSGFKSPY
Active and inactive are the calls of the source. The rule behind the calls is not given here.
measured parameter: inhibition

Solved cases below.
molecule	measured parameter	reading
O=C(NCc1ccc(Cl)cc1Cl)[C@@H]1CCC(=O)N1c1cccs1	inhibition	98%
O=C(NCc1ccccc1Cl)[C@@H]1CCC(=O)N1Cc1ccccc1Cl	inhibition	0%
Cc1ccc(CN2C(=O)CC[C@H]2C(=O)NCCc2ccccc2)cc1	inhibition	0%
O=C1CC[C@@H](C(=O)NCc2ccc(Cl)cc2Cl)N1	inhibition	inactive
COc1ccc(CN2C(=O)CC[C@H]2C(=O)NCCc2ccccc2)cc1	inhibition	0%
C[n+]1ccccc1C(=O)NCc1ccc(Cl)cc1Cl.[I-]	inhibition	0%
COc1cc(CNC(=O)[C@@H]2CCC(=O)N2)cc(OC)c1OC	inhibition	inactive
C[C@@H](c1ccccc1)N1C(=O)[C@@H]2C/C(=C\N(C)C)C(=O)N2C1N(C)C (stereo not given in full)	inhibition	0%
CN1CCN(/C=C2\C[C@@H](C(=O)NCc3ccc(Cl)cc3Cl)N(c3cccs3)C2=O)CC1	inhibition	49%

Consider the record given below.
**Query** Entry under review: COC(=O)[C@@H]1COC(=O)N1 . Reported inhibition?
**Result** inactive

---

test system: SK-OV-3; assay: Cytotoxicity against human SKOV3 cells assessed as effect on cell growth at 10 uM incubated for 48 hrs by sulforhodamine B assay; assay type: cell-based; details: sk-ov-3, 48 h
measured parameter: Activity

Would you please look over these solved cases?
compound	target entity	Activity
O=C(NCc1ccc(Cl)cc1Cl)[C@@H]1CCC(=O)N1Cc1ccc(Cl)cc1	SK-OV-3	Non-Toxic
O=C(NCc1ccc(Cl)cc1Cl)[C@@H]1CCC(=O)N1c1cscn1	SK-OV-3	Non-Toxic
O=C(NCc1ccccc1Cl)[C@@H]1CCC(=O)N1Cc1ccccc1Cl	SK-OV-3	Non-Toxic
COC(=O)[C@@H]1C/C(=C\NCc2ccc(Cl)cc2Cl)C(=O)N1C(=O)OC	SK-OV-3	Non-Toxic
O=C1N[C@H](C(=O)NCc2ccc(Cl)cc2Cl)CO1	SK-OV-3	Non-Toxic

**Query** If you can, please state the reported Activity value of CN1C(=O)C(C)(C)C[C@H]1C(=O)NCc1cccc(C(F)(F)F)c1Cl .
**Result** Non-Toxic

---

Assignment: determine reported metabolised at 40 min for the given compounds.
experiment: Drug metabolism in mouse measured after 40 mins; assay type: ADME; settings: read-out: Drug metabolism
Write the answer as a number in %, unit excluded.

**Query** metabolised at 40 min lookup needed for O=C(NCc1ccc(Cl)cc1Cl)[C@@H]1CCC(=O)N1c1ccsc1 , thanks.
**Result** 99.9

**Query** Could you tell me which metabolised at 40 min is on file for CN1C(=O)CC[C@H]1C(=O)NCc1cccc(C(F)(F)F)c1Cl [GSK1482160] ?
**Result** 4.4

**Query** Quick one: metabolised at 40 min for CN1C(=O)CC[C@H]1C(=O)NCc1ccc(Cl)cc1Cl ?
**Result** 5.1

**Query** Could you share which metabolised at 40 min value was measured for O=C(NCc1ccc(Cl)cc1Cl)[C@@H]1CCC(=O)N1c1cccs1 ?
**Result** 100

**Query** Given the entry O=C(NCc1ccc(Cl)cc1Cl)[C@@H]1CCC(=O)N1c1nccs1 , report its measured metabolised at 40 min.
**Result** 93

**Query** # get_value(readout='metabolised at 40 min', item= O=C(NCc1cccc(C(F)(F)F)c1Cl)[C@@H]1CCC(=O)N1c1cccs1 )
**Result** 99.7

**Query** I would be grateful if you could share the reported metabolised at 40 min for O=C(NCc1ccc(Cl)cc1Cl)[C@@H]1CCC(=O)N1c1cscn1 .
**Result** 98

**Query** Could you tell me which metabolised at 40 min is on file for O=C(NCc1ccc(Cl)cc1Cl)[C@@H]1CCC(=O)N1c1ccoc1 ?
**Result** 99.9

**Query** GET /values?readout=metabolised at 40 min&item= O=C(NCc1ccc(Cl)cc1Cl)[C@@H]1COC(=O)N1c1cccs1
**Result** 100

**Query** Given the entry O=C(NCc1ccc(Cl)cc1Cl)[C@@H]1CCC(=O)N1c1ccco1 , report its measured metabolised at 40 min.
**Result** 99.2

---

system: SK-MEL-5; assay: Cytotoxicity against human SK-MEL-5 cells assessed as effect on cell growth at 10 uM incubated for 48 hrs by sulforhodamine B assay; type: cell-based; conditions: sk-mel-5, 48 h
measured parameter: Activity

O=C(Nc1ccc(Cl)cc1Cl)[C@@H]1CCC(=O)N1Cc1ccccc1Cl Non-Toxic
CN(C)/C=C1\C[C@@H](C(=O)NCc2ccc(Cl)cc2Cl)N(c2cccs2)C1=O Non-Toxic
Cc1ccc(NC(=O)[C@@H]2CCC(=O)N2c2ccccc2)cc1 Non-Toxic

---

tested on: NCI-H226; assay: Cytotoxicity against human NCI-H226 cells assessed as effect on cell growth at 10 uM incubated for 48 hrs by sulforhodamine B assay; assay type: cell-based; conditions: nci-h226, 48 h
measured parameter: Activity

O=C(NCCc1ccccc1)[C@@H]1CCC(=O)N1Cc1ccc(Br)cc1 Non-Toxic
COc1ccc(NC(=O)[C@@H]2CCC(=O)N2)cc1OC Non-Toxic
C[n+]1ccccc1C(=O)NCc1ccc(Cl)cc1Cl.[I-] Non-Toxic
O=C(NCc1ccc(Cl)cc1Cl)[C@@H]1CCC(=O)N1Cc1ccccc1 Non-Toxic

---

tested on: RXF 393; assay: Cytotoxicity against human RXF393 cells assessed as effect on cell growth at 10 uM incubated for 48 hrs by sulforhodamine B assay; type: cell-based; settings: rxf 393, 48 h
measured parameter: Activity

Worked examples, 5 compounds total:
compound	target entity	Activity
O=C1N[C@H](C(=O)NCc2ccc(Cl)cc2Cl)CO1	RXF 393	Non-Toxic
CN(Cc1ccccc1)C(=O)[C@@H]1CCC(=O)N1Cc1ccc(Cl)cc1Cl	RXF 393	Non-Toxic
O=C(NCCc1ccccc1)[C@@H]1CCC(=O)N1Cc1ccc(Cl)cc1Cl	RXF 393	Non-Toxic
O=C(NCc1ccc(Cl)cc1Cl)[C@@H]1CCC(=O)N1c1ccc(Cl)cc1Cl	RXF 393	Non-Toxic
O=C1CCCC(C(=O)NCc2ccc(Cl)cc2Cl)N1 (stereo unspecified)	RXF 393	Non-Toxic

**Query** May I ask what Activity has been recorded for CCCCCCN1C(=O)[C@@H]2CCC(=O)N2C1N(C)C (stereo partly specified) ?
**Result** Non-Toxic

---

system: LOX IMVI; assay: Cytotoxicity against human LOXIMVI cells assessed as effect on cell growth at 10 uM incubated for 48 hrs by sulforhodamine B assay; assay type: cell-based
measured parameter: Activity

See these solved cases before continuing.
molecule	target entity	measured parameter	reading
O=C(NCCc1ccccc1)[C@@H]1CCC(=O)N1Cc1ccc(Cl)cc1Cl	LOX IMVI	Activity	Non-Toxic
CCCCCCN1C(=O)[C@@H]2CCC(=O)N2C1N(C)C (some centres undefined)	LOX IMVI	Activity	Non-Toxic
CN(C)/C=C1\C[C@@H](C(=O)NCc2ccc(Cl)cc2Cl)N(c2cccs2)C1=O	LOX IMVI	Activity	Non-Toxic
O=C(NCc1ccc(Cl)cc1Cl)[C@@H]1CCC(=O)N1C(c1ccc(Cl)cc1)c1ccc(Cl)cc1	LOX IMVI	Activity	Non-Toxic
O=C(NCC1CCCCC1)[C@@H]1CCC(=O)N1c1ccccc1	LOX IMVI	Activity	Non-Toxic
O=C1N[C@H](C(=O)NCc2ccc(Cl)cc2Cl)C/C1=C/NCc1ccc(Cl)cc1Cl	LOX IMVI	Activity	Non-Toxic
O=C(NCc1ccc(Cl)cc1Cl)[C@@H]1CCC(=O)N1c1ccc(Cl)cc1	LOX IMVI	Activity	Non-Toxic
O=C(NCc1ccc(Cl)cc1Cl)[C@@H]1CCC(=O)N1c1cscn1	LOX IMVI	Activity	Non-Toxic

**Query** What value of measured Activity is listed for CN1C(=O)CC[C@H]1C(=O)NCc1cc(C(F)(F)F)ccc1Cl ?
**Result** Non-Toxic

**Query** Which Activity is listed for CN1C(=O)CC[C@H]1C(=O)NCc1cccc(C(F)(F)F)c1Cl ?
**Result** Non-Toxic

**Query** For the molecule shown here, O=C1N[C@H](C(=O)NCc2ccc(Cl)cc2Cl)C/C1=C\N1CCOCC1 , give the reported Activity.
**Result** Non-Toxic

**Query** What does the data say about its Activity? Entry: CN(C)/C=C1\C[C@H]2C(=O)N(Cc3ccccc3Cl)C(N(C)C)N2C1=O (some centres undefined)
**Result** Non-Toxic

**Query** Requested read-out: Activity. Entry: COc1ccc(CN2C(=O)[C@@H]3C/C(=C\N(C)C)C(=O)N3C2N(C)C)c(OC)c1 (some centres undefined)
**Result** Non-Toxic

**Query** Reported Activity, molecule O=C(NCc1ccc(Cl)cc1Cl)[C@@H]1CCC(=O)N1C(c1ccccc1)c1ccccc1 : ____
**Result** Non-Toxic

**Query** Need Activity, item O=C(NCc1ccccc1Cl)[C@@H]1CCC(=O)N1Cc1ccccc1
**Result** Non-Toxic

**Query** Suppose we examine the molecule COc1ccc(CN2C(=O)CC[C@H]2C(=O)NCCc2ccccc2)cc1 ; what Activity value has been reported?
**Result** Non-Toxic

**Query** I am curious: what Activity value has been reported for N#Cc1ccc(N2C(=O)CC[C@H]2C(=O)NCc2ccc(Cl)cc2Cl)cc1 ?
**Result** Non-Toxic

**Query** Consider the molecule O=C(NCc1ccccc1Cl)[C@@H]1CCC(=O)N1c1ccccc1 and give its measured Activity.
**Result** Non-Toxic

**Query** GET /values?readout=Activity&item= O=C(NCc1ccc(Cl)cc1Cl)[C@@H]1CCC(=O)N1Cc1ccccc1
**Result** Non-Toxic

**Query** Using the record for CN(C)/C=C1\C[C@H]2C(=O)N(/C(=C/N(C)C)c3ccncc3)C(N(C)C)N2C1=O (some centres undefined) , report its Activity.
**Result** Non-Toxic

**Query** # get_value(readout='Activity', item= COc1ccc(N2C(=O)[C@@H]3C/C(=C\N(C)C)C(=O)N3C2N(C)C)cc1 (some centres undefined) )
**Result** Non-Toxic

**Query** Data request, read-out Activity, for O=C1CCCC(C(=O)NCc2ccc(Cl)cc2Cl)N1 (centres undefined)
**Result** Non-Toxic

**Query** Quick check: Activity of O=C(NCc1ccc(Cl)cc1Cl)[C@@H]1COC(=O)N1c1cccs1 ?
**Result** Non-Toxic

**Query** So what's the measured Activity for this one? O=C(NCc1ccc(Cl)cc1Cl)[C@@H]1CCC(=O)N1Cc1ccc(Cl)cc1
**Result** Non-Toxic

**Query** Which Activity value belongs to O=C(NCc1ccc(Cl)cc1Cl)[C@@H]1CCC(=O)N1c1nccs1 ?
**Result** Non-Toxic

**Query** # get_value(readout='Activity', item= CCCCCCN1C(=O)[C@@H]2C/C(=C\N(C)C)C(=O)N2C1N(C)C (some centres undefined) )
**Result** Non-Toxic

**Query** Item COc1cc(CN/C=C2\C[C@@H](C(=O)NCc3ccc(Cl)cc3Cl)NC2=O)cc(OC)c1OC has what recorded Activity?
**Result** Non-Toxic

**Query** // lookup Activity for O=C(NCCc1ccc(Cl)cc1Cl)[C@@H]1CCC(=O)N1c1ccccc1
**Result** Non-Toxic
